# measured on: ROCK2 (Homo sapiens (Human))
# Sequence (O75116 11-552): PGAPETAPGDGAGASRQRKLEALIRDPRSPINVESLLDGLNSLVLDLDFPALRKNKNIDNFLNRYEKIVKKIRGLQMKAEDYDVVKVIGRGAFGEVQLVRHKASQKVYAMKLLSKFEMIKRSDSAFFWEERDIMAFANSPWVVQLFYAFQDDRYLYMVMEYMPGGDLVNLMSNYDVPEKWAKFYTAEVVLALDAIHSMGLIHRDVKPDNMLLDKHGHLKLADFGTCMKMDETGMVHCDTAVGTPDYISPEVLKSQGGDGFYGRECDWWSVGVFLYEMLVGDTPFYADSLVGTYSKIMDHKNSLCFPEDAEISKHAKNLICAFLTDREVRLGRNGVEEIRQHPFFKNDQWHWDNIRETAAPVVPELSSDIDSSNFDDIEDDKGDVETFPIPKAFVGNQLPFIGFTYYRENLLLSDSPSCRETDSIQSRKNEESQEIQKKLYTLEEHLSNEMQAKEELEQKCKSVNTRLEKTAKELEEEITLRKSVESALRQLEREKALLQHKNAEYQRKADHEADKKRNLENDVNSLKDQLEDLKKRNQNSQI
# assay info: Rho Kinase Inhibition Assay (IMAP fluorescence polarization)
# condition description: isolated enzyme, 10 μM ATP, 60 minutes at room temperature
measured attribute: IC50 (µM)

Examples with their reported IC50 follow.
- compound: "c1cn(-c2ccc(CN3CCCC(Nc4ccc5[nH]ncc5c4)C3)cc2)cn1 (stereo not shown)"
  IC50 / µM: 2.8
- compound: "CCS(=O)(=O)Nc1cccc(CN2CCC[C@@H](Nc3ccc4[nH]ncc4c3)C2)c1"
  IC50 / µM: 0.135
- compound: "CC(C)c1ccc(CN2CCCC(Nc3ccc4[nH]ncc4c3)C2)cc1 (stereo not shown)"
  IC50 / µM: 0.334

P. Cc1ccc(CN2CCCC(Nc3ccc4[nH]ncc4c3)C2)cc1O (stereo not shown)
Q. OCCn1ccc2ccc(CN3CCC[C@H](Nc4ccc5[nH]ncc5c4)C3)cc21
R. Clc1ccc(CN2CCC(Nc3ccc4[nH]ncc4c3)C2)cc1Cl (stereo not shown)
S. Cc1ccc(CN2CCC[C@H](Nc3ccc4[nH]ncc4c3)C2)cc1
INPUT: Order the records, beginning with the lowest IC50 and ending with the highest. Reply format: the labels, ordered as requested.
OUTPUT: P, S, R, Q

a. C#Cc1ccc(CN2CCC[C@@H](Nc3ccc4[nH]ncc4c3)C2)cc1
b. OCCC#Cc1ccc(CN2CCCC(Nc3ccc4[nH]ncc4c3)C2)cc1 (stereo not shown)
INPUT: Hi! Which is lower in terms of IC50, the first one a or the second one b ? Use the label to indicate which entry you chose.
OUTPUT: a
(a: 0.111 µM, b: 11.7 µM)

Recorded values, source patent US8604218B2.
